Item-by-item account of logIC10
System: MCF7 (ARE/MMP)
Conditions: MMP bioassay cytotoxicity; dosing range all; log-logistic model
Write the value as a bare number.

Example cases with answers are listed next.
CC(c1ccc(O)cc1)c1ccc(O)cc1 [BPE, 4,4′-Ethylidenbisphenol] = -4.10
Oc1ccc(C2(c3ccc(O)cc3)CCCCC2)cc1 [BPZ, 1,1'-Bis(4-hydroxyphenyl)cyclohexane] = -4.48

Reported logIC10 for COC(=O)C(c1ccc(O)cc1)c1ccc(O)cc1 [Bz, Methyl bis(4-hydroxyphenyl)acetate] : what is it?
-3.46

For CC(c1ccccc1)(c1ccc(O)cc1)c1ccc(O)cc1 [BPAP, 4,4'-(1-Phenylethylidene)bisphenol] , what is its reported logIC10?
-4.46

Record request: logIC10 value, item O=C(OCc1ccccc1)c1ccc(O)cc1 [BzPB, Benzyl 4-hydroxybenzoate]
-3.53

Look up logIC10 for this molecule: CCC(C)(c1ccc(O)cc1)c1ccc(O)cc1 [BPB, 4,4'-(Butane-2,2-diyl)diphenol]
-4.46

Consider the molecule shown here: C=CCOc1ccc(S(=O)(=O)c2ccc(O)cc2)cc1 [BPS-MAE, 4-[[4-(Allyloxy)phenyl]sulfonyl]phenol] What is its recorded logIC10?
-3.07

###

Molecular target: Aryl hydrocarbon receptor (Rattus norvegicus)
Sequence (P41738 10-853): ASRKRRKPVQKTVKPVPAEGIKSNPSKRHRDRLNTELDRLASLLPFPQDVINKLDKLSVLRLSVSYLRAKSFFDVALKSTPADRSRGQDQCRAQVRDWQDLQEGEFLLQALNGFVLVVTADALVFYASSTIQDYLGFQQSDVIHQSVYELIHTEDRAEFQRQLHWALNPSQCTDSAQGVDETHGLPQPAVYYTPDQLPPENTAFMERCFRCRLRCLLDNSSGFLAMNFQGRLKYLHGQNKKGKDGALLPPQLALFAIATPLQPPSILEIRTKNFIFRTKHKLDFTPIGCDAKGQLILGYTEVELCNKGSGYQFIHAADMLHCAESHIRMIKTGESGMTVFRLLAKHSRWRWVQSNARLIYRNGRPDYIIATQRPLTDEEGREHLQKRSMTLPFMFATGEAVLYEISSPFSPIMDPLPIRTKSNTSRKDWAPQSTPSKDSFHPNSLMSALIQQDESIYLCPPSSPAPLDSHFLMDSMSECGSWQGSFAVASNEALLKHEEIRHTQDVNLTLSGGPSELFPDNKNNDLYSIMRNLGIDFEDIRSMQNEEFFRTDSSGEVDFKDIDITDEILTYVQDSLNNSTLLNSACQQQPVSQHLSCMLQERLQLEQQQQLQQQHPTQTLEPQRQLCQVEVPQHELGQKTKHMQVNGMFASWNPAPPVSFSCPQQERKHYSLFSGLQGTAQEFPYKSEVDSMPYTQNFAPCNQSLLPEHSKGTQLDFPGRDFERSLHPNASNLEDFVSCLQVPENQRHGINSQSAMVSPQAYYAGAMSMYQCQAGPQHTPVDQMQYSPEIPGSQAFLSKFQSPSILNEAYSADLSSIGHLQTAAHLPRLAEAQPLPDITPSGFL
Settings: SR-Score, sigma k=1, x=5
// False strictly below 0.03 in SR-ScoreAhR; True otherwise

Worked examples, 4 molecules total:
CC(C)(c1ccc(O)c(-c2ccccc2)c1)c1ccc(O)c(-c2ccccc2)c1 [BPPH, 2,2-Bis(2-hydroxy-5-biphenylyl)propane] = False
Cc1ccc(S(=O)(=O)NC(=O)Nc2cccc(OS(=O)(=O)c3ccc(C)cc3)c2)cc1 = True
CC(c1ccc(O)cc1)c1ccc(O)cc1 = False
CC(C)(c1ccc(O)cc1)c1ccc(O)cc1 [BPA, 4,4'-(Propane-2,2-diyl)diphenol, reference compound] = False

Now look at this entry.
Is reported SR-ScoreAhR greater than or equal to 0.03 here: COC(=O)C(c1ccc(O)cc1)c1ccc(O)cc1 [Bz, Methyl bis(4-hydroxyphenyl)acetate]
True

###

Test system: Mitochondrial Membrane Potential
Assay: cells
Settings: Arec32, read-out: logEC10
Quantity measured: EC10
Write the quantity with the unit trailing the number.

Example entries begin here.
CC(C)Oc1ccc(S(=O)(=O)c2ccc(O)cc2)cc1 [D8, 4-((4-Isopropoxyphenyl)sulfonyl)phenol] = 52.5 µM
COC(=O)C(c1ccc(O)cc1)c1ccc(O)cc1 [Bz, Methyl bis(4-hydroxyphenyl)acetate] = 64.6 µM
C=CCOc1ccc(S(=O)(=O)c2ccc(O)cc2)cc1 [BPS-MAE, 4-[[4-(Allyloxy)phenyl]sulfonyl]phenol] = 77.6 µM

Please turn your attention to the following entry.
Which EC10 is listed for O=S(=O)(c1ccc(O)cc1)c1ccccc1O [2,4-BPS, 2,4'-Dihydroxydiphenyl sulfone] ?
58.9 µM

###

Test system: H4IIe (AhR CALUX)
Details: Bioassay AhR; cytotoxicity; dosing range all; log-logistic model fit
# logIC10 listing for each entry below
Answer field: number only, no words.

Known logIC10 results, listed for orientation:
CC(c1ccc(O)cc1)c1ccc(O)cc1 = -3.97
CC(C)(c1cc(Cl)c(O)c(Cl)c1)c1cc(Cl)c(O)c(Cl)c1 = -4.05
CC(c1ccccc1)(c1ccc(O)cc1)c1ccc(O)cc1 = -4.02
CC(C)c1cc(C(C)(C)c2ccc(O)c(C(C)C)c2)ccc1O = -4.61
COC(=O)C(c1ccc(O)cc1)c1ccc(O)cc1 [Bz, Methyl bis(4-hydroxyphenyl)acetate] = -3.85
O=C(OCc1ccccc1)c1ccc(O)cc1 [BzPB, Benzyl 4-hydroxybenzoate] = -3.54

Endpoint output: logIC10 of Cc1cc(Cc2cc(C)c(O)c(C)c2)cc(C)c1O [TMBPF, Bis(3,5-dimethyl-4-hydroxyphenyl)methane] . Value?
-3.98

Param item = O=S(=O)(c1ccc(O)cc1)c1ccc(OCc2ccccc2)cc1 [BPS-MPE, 4-[4-(benzyloxy)benzenesulfonyl]phenol] ; retrieve measured logIC10.
-4.24

Entry CC1(C)C(O)C(C)(C)C1O (racemic) : reported logIC10 = ?
-2.04

Given the compound CC1(C)[C@H](O)C(C)(C)[C@H]1O [Trans TMCD] , what is its reported logIC10?
-1.99

Requested field: logIC10. Item: Oc1ccc(C2(c3ccc(O)cc3)CCCCC2)cc1 [BPZ, 1,1'-Bis(4-hydroxyphenyl)cyclohexane]
-4.08

Requested field: logIC10. Item: CC(C)(c1ccc(O)c(-c2ccccc2)c1)c1ccc(O)c(-c2ccccc2)c1 [BPPH, 2,2-Bis(2-hydroxy-5-biphenylyl)propane]
-4.74

// lookup logIC10 for C=CCOc1ccc(S(=O)(=O)c2ccc(O)cc2)cc1 [BPS-MAE, 4-[[4-(Allyloxy)phenyl]sulfonyl]phenol]
-4.07
